Reference source: patent US6762190B2

IC50 values by entry
- target-or-test-system: 293 cells cotransfected with αv and β3 subunits of the vitronectin receptor αvβ3, binding to human vitronectin (Vn) (Homo sapiens, UniProt P05106+P06756)
- Sequence (P05106 whole entry): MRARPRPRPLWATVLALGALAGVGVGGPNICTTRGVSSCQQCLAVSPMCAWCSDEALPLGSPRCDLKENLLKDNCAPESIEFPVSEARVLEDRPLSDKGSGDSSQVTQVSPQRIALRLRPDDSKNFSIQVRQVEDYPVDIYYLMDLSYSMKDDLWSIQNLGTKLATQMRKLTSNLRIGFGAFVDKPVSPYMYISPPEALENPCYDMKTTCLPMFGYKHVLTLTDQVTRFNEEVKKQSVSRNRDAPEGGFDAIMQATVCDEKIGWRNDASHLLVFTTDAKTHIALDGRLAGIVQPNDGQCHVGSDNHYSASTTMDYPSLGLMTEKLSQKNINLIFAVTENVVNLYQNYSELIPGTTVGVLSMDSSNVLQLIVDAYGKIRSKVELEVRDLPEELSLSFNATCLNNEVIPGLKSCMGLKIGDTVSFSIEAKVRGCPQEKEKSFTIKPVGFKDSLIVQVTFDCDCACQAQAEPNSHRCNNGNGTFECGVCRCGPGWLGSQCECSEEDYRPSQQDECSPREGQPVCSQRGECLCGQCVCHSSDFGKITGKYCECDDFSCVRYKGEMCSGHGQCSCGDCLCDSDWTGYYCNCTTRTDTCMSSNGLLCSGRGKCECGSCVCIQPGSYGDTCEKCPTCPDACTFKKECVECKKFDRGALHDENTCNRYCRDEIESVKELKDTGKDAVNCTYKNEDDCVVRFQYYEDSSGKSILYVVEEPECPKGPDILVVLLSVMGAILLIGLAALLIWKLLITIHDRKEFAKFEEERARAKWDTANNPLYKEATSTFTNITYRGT
- Sequence (P06756 whole entry): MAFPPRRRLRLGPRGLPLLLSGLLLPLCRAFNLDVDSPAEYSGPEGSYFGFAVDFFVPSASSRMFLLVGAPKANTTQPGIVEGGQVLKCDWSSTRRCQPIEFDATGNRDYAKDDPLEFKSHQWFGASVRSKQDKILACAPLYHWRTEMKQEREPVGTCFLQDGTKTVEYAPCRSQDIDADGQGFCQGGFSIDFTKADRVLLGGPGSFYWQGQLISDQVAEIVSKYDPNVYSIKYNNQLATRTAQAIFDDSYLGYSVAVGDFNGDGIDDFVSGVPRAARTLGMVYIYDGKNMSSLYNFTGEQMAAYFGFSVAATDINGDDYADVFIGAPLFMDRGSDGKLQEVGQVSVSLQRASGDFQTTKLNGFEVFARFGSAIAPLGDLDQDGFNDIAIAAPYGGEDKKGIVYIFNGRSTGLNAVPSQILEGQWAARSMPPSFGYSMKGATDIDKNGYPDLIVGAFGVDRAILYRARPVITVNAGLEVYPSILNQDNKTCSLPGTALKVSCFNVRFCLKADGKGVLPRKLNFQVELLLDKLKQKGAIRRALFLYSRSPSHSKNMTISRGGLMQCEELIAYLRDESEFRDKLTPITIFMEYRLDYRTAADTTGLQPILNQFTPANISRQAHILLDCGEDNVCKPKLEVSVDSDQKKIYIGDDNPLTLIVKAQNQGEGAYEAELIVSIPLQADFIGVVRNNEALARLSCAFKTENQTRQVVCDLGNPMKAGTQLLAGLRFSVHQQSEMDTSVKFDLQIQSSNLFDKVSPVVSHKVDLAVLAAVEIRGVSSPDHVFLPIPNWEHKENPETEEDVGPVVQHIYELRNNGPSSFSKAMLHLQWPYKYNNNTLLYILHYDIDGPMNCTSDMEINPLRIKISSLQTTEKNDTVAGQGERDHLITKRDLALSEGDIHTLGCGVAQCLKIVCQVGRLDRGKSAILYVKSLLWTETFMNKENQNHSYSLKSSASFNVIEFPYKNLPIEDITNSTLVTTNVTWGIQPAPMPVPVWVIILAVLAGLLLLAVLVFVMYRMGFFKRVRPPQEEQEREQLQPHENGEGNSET
- assay-protocol: Vitronectin/293 cell test (inhibition of binding of 293 cells to human vitronectin)
- measurement-context: inhibition of binding of αvβ3-expressing 293 cells to human vitronectin
metric-name: IC50 (nM)

compound	metric-name	reported-result
CCCCS(=O)(=O)N[C@@H](Cc1ccc(CCCCC(=O)NC2=NCCCN2)s1)C(=O)O [Example 9]	IC50	1800
O=C(CCCCc1ccc(C[C@H](NC(=O)OCc2ccccc2)C(=O)O)s1)NC1=NCCCN1 [Example 11]	IC50	110
O=C(CCCCc1ccc(C[C@H](NS(=O)(=O)c2cccc(Cl)c2)C(=O)O)s1)NC1=NCCCN1 [Example 5]	IC50	420
O=C(CCCCCc1ccc(C[C@H](NC(=O)OCc2ccccc2)C(=O)O)s1)NC1=NCCCN1 [Example 13]	IC50	210

----------
- target-or-test-system: 293 cells cotransfected with αv and β3 subunits of the vitronectin receptor αvβ3, binding to human vitronectin (Vn) (Homo sapiens, UniProt P05106+P06756)
- assay-protocol: Vitronectin/293 cell test (inhibition of binding of 293 cells to human vitronectin)
- measurement-context: inhibition of binding of αvβ3-expressing 293 cells to human vitronectin
IC50 values by entry

molecule	IC50 [nM]
O=C(CCCCc1ccc(C[C@H](NS(=O)(=O)c2ccc(C(F)(F)F)cc2)C(=O)O)s1)NC1=NCCCN1 [Example 6]	2000
O=C(CCCCc1ccc(C[C@H](NS(=O)(=O)c2ccc(Cl)cc2)C(=O)O)s1)NC1=NCCCN1 [Example 4]	850
O=C(CC/C=C/c1ccc(C[C@H](NC(=O)OCc2ccccc2)C(=O)O)s1)NC1=NCCCN1 [Example 15]	580
O=C(CCCCc1ccc(C[C@H](NS(=O)(=O)c2ccc3ccccc3c2)C(=O)O)s1)NC1=NCCCN1 [Example 2]	330
O=C(CCCCc1ccc(C[C@H](NS(=O)(=O)CC(F)(F)F)C(=O)O)s1)NC1=NCCCN1 [Example 7]	400
O=C(CCC/C=C/c1ccc(C[C@H](NC(=O)OCc2ccccc2)C(=O)O)s1)NC1=NCCCN1 [Example 14]	690
O=C(CCCCc1ccc(C[C@H](NC(=O)OCC23CC4CC(CC(C4)C2)C3)C(=O)O)s1)NC1=NCCCN1 [Example 12]	220
